STUDY SYSTEM: Progesterone receptor (Homo sapiens)
Sequence (P06401 whole entry): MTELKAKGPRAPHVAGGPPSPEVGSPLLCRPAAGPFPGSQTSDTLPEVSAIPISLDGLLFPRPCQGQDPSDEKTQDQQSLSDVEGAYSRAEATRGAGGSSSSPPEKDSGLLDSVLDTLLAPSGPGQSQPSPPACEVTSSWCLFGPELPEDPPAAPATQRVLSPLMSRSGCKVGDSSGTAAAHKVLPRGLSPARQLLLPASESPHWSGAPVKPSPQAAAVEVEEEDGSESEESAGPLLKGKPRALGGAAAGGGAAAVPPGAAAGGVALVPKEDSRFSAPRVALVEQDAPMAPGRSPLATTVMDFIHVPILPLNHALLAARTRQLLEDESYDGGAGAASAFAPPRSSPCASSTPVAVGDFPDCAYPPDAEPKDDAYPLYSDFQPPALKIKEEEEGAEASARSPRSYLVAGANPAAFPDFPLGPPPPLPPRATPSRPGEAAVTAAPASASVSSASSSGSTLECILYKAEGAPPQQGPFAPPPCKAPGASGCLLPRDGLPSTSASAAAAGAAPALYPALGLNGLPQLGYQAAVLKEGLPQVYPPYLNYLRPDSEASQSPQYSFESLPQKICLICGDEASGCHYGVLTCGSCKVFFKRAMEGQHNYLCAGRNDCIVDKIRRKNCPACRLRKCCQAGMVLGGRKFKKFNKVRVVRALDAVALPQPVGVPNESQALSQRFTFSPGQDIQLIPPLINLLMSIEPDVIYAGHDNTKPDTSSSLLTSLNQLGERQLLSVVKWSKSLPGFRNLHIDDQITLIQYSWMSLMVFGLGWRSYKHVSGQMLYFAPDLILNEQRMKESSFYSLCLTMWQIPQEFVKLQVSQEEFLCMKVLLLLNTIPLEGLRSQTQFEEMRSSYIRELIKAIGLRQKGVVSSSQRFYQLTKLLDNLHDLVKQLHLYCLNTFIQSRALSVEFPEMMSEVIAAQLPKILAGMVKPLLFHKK
TEST DETAILS: Binding affinity against human progesterone receptor
PROPERTY LABEL: Ki (nM)

Illustrative cases are given below, each with its answer.
• CC1=CC(C)(C)Nc2ccc3c(c21)/C(=C/c1cccc(Br)c1)Oc1ccccc1-3 = 22.1
• CC1=CC(C)(C)Nc2ccc3c(c21)/C(=C/c1ccc(C)cc1)Oc1ccccc1-3 = 70
• CC1=CC(C)(C)Nc2ccc3c(c21)/C(=C/c1cccc(Cl)c1)Oc1ccccc1-3 = 18.7
• CC1=CC(C)(C)Nc2ccc3c(c21)/C(=C/c1ccc(F)c(F)c1)Oc1ccccc1-3 = 3.6
• CC1=CC(C)(C)Nc2ccc3c(c21)/C(=C/c1ccccc1Br)Oc1ccccc1-3 = 5.5

[a] CC1=CC(C)(C)Nc2ccc3c(c21)/C(=C/c1ccccc1F)Oc1ccccc1-3
[b] CC1=CC(C)(C)Nc2ccc3c(c21)/C(=C/c1ccc(Cl)cc1)Oc1ccccc1-3
Ask: Between a and b , whose recorded Ki is greater? Which one? Tell me its label.
Reply: b

* * *

STUDY SYSTEM: UniProt P10275
Sequence (P10275 whole entry): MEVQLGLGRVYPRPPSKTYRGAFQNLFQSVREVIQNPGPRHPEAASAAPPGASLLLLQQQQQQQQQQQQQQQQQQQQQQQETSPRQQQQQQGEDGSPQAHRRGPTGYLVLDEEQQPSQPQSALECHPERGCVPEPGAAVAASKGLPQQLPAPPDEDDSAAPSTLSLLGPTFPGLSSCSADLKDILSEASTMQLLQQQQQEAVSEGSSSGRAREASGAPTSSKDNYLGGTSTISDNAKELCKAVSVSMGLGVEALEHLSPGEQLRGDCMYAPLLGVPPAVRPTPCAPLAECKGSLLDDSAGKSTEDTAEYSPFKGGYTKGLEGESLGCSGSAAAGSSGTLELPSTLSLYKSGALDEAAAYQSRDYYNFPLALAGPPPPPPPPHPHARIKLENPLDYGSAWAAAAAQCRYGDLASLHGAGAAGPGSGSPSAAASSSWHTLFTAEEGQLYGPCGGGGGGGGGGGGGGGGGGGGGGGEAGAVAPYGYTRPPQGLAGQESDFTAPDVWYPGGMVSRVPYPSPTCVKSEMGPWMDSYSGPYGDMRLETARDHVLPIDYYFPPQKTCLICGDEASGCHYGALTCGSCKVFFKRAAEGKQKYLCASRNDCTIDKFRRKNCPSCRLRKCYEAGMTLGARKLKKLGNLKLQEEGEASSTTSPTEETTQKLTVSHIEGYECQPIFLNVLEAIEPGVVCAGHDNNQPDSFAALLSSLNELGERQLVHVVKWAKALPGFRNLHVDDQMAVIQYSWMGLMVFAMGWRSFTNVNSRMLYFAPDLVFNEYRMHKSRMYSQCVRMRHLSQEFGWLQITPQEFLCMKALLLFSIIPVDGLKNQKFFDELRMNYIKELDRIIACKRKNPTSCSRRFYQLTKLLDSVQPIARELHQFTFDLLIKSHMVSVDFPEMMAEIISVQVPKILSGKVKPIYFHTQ
PROPERTY LABEL: IC50 (nM)

* CC1=CC(C)(C)Nc2ccc3c(c21)/C(=C/c1ccccc1)Oc1ccccc1-3 | 650
* CC1=CC(C)(C)Nc2ccc3c(c21)/C(=C/c1cccc(F)c1)Oc1ccccc1-3 | 795

* * *

STUDY SYSTEM: Glucocorticoid receptor (Homo sapiens, UniProt P04150)
Sequence (P04150 whole entry): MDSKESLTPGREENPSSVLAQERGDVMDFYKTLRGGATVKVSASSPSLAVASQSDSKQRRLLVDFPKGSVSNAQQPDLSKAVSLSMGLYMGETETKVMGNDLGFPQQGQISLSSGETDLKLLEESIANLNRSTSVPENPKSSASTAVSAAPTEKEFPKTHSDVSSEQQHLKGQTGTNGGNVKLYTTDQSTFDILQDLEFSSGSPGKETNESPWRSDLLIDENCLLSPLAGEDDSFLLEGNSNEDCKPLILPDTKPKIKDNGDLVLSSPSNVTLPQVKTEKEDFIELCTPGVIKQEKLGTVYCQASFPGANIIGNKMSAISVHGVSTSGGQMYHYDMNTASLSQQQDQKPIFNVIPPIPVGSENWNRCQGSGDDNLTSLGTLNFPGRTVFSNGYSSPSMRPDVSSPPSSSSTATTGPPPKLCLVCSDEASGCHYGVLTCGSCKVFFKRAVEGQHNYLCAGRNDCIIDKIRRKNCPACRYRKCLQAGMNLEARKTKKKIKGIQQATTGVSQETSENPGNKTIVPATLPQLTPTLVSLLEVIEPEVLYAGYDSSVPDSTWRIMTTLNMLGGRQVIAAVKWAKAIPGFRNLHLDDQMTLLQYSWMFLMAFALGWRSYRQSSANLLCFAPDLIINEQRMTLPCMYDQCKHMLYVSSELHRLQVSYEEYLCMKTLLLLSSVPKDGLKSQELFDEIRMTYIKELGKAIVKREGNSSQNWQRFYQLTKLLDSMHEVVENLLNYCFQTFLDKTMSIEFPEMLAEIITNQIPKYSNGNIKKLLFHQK
TEST DETAILS: Inhibitory activity (IC50) against human glucocorticoid receptor expressed in CV-1 cells
Format: cell-based
PROPERTY LABEL: IC50 (nM)

• CC1=CC(C)(C)Nc2ccc3c(c21)/C(=C/c1ccccc1C)Oc1ccccc1-3 = 1050

[a] CC1=CC(C)(C)Nc2ccc3c(c21)/C(=C/c1cc(F)ccc1F)Oc1ccccc1-3
[b] CC1=CC(C)(C)Nc2ccc3c(c21)/C(=C/c1ccc(F)c(F)c1)Oc1ccccc1-3
Ask: Lowest IC50? choose a or b # answer = label of selected item
Reply: a
(a: 371 nM, b: 1650 nM)
